Target: T1, cynomolgus monkey BCMA (cynomolgus monkey, UniProt A0A2K5UD97 1-53)
T1 construct: Soluble analyte in SPR; construct not described; also called cyBCMA; Cyno BCMA
T1 sequence (A0A2K5UD97 entry or part of it): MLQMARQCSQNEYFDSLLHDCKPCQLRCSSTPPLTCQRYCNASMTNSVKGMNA
Assay: SPR, IgG on chip, cyBCMA analyte
# koff per entry
Value type: koff (s⁻¹)

Binder | Experimental result
A02_Rd4_6nM_C16 (antibody, V domains shown, IgG; also called P5AC16; P5A16) VH: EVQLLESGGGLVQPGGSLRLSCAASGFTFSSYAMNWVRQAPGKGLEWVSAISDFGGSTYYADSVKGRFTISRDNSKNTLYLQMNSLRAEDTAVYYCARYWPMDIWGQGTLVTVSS VL: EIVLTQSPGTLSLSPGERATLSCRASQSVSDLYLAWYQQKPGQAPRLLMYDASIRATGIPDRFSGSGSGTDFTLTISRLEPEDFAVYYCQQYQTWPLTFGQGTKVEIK | 0.000158
C01_Rd4_6nM_C26 (antibody, V domains shown, IgG) VH: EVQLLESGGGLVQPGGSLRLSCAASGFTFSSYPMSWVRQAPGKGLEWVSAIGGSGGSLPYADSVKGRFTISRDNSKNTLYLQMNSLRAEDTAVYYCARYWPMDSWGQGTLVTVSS VL: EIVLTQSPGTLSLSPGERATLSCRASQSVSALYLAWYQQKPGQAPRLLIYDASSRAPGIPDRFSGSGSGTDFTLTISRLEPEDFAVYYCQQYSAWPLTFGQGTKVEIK | 0.00199
A02_Rd4_6nM_C26 (antibody, V domains shown, IgG) VH: EVQLLESGGGLVQPGGSLRLSCAASGFTFSSYAMNWVRQAPGKGLEWVSAISDSGGSTYYADSVKGRFTISRDNSKNTLYLQMNSLRAEDTAVYYCARYWPMSLWGQGTLVTVSS VL: EIVLTQSPGTLSLSPGERATLSCRASQSVSSLYLAWYQQKPGQAPRLLMYDASIRATGIPDRFSGSGSGTDFTLTISRLEPEDFAVYYCQQYQVWPLTFGQGTKVEIK | 0.000448
C01_Rd4_0.6nM_C16 (antibody, V domains shown, IgG) VH: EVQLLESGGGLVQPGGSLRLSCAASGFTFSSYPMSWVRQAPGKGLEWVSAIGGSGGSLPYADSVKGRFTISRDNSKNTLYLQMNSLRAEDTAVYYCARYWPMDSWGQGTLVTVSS VL: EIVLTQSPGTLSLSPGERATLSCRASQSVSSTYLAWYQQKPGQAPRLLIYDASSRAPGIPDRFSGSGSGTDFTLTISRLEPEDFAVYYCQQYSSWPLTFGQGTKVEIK | 0.00464
COMBO_Rd4_6nM_C21 (antibody, V domains shown, IgG) VH: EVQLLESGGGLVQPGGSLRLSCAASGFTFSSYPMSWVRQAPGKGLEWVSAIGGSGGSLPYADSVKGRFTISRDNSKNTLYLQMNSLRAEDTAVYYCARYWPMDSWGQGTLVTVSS VL: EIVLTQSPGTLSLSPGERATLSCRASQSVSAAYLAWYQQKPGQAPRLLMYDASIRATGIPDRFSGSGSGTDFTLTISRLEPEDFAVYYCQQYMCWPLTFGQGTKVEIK | 0.000248
